Exercise: state measured TGI for each of the compounds provided.
- System: HCT-116 colon
- Assay overview: NCI tumour cell line growth inhibition, 48 h

Record excerpt, results attached:
compound=c1ccc(Nc2nnc(-c3ccccc3Nc3ccccc3-c3nnc(Nc4ccccc4)s3)s2)cc1 endpoint_label=TGI meas_value="> 100 µM"
compound="Cc1ncc2c(n1)CCC1=C2OS(=O)(=O)CC1N(C)C (stereo unspecified)" endpoint_label=TGI meas_value="> 100 µM"
compound="C=C1C(=O)OC2/C=C(CO)/C=C\\C3OC3(C)CC(OC(=O)/C(C)=C/COC(C)=O)C12 (stereo unspecified)" endpoint_label=TGI meas_value="2.83 µM"
compound="CCOC(=O)C(c1ccsc1)P(=O)(OCC)OCC (stereo unspecified)" endpoint_label=TGI meas_value="25.7 µM"
compound="COc1cc(C2c3cc4c(cc3[C@@H](Nc3cnc5ccccc5c3)C3COC(=O)[C@H]23)OCO4)cc(OC)c1O (stereo partly specified)" endpoint_label=TGI meas_value="2.26 µM"

Please give TGI for each item listed below.
1. COC(=O)C(C(=O)C(=O)Nc1nc2ccc(OC)cc2s1)c1cnc2ccccc2n1 (stereo unspecified)
2. CCn1cnc(C[C@H](NC(=O)[C@@H](NC(=O)Nc2cc(C(F)(F)F)cc(C(F)(F)F)c2)C(C)(C)C)C(=O)OC)c1
3. N=c1oc2ccccc2cc1C(=O)Nc1ccccn1
4. O=C1CC2=CCCC2O1 (stereo unspecified)
5. CCOC(=O)C1Cc2ccc(C)cc2C1=O (stereo unspecified)

1. > 100 µM
2. > 10 µM
3. > 100 µM
4. > 100 µM
5. > 100 µM

State the recorded TGI for this entry: COc1ccc(C)cc1-c1ccc(-c2cc(C)ccc2OC)o1
> 100 µM
